pEC50 reference
# TESTED TARGET: Human TREM2 (Homo sapiens, UniProt Q9NZC2)
# Construct: expressed in transfected cells
# Sequence (Q9NZC2 19-230): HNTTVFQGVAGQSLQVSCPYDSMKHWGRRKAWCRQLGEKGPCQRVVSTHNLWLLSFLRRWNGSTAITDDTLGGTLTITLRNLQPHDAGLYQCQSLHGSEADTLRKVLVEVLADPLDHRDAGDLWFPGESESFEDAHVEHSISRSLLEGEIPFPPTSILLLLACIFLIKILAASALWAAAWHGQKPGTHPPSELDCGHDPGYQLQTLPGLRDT
# Sequence (O43914 22-113 partner): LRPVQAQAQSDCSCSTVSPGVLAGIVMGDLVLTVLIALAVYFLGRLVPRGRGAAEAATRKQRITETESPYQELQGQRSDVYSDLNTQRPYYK
# ASSAY INFO: Human TREM2 activity: cellular phosphorylation of Syk (AlphaLISA SureFire Ultra p-SYK) in HEK293/DAP12+TREM2 stable cell line
# Assay type: cell-based
# MEASUREMENT CONTEXT: phospho-Syk AlphaLISA signal, HEK293/DAP12+TREM2 cells; concentration giving 50% of maximal response; read-out: EC50
pEC50: −log10 of the molar value.

Cc1nc2c(-c3ccc(C(F)(F)F)cc3F)nc(N3C[C@@H](C)O[C@@H](c4cnn(C5CC5)c4)C3)nc2c(=O)n1C (single isomer, unassigned) [Example 195B]; > 9.00
Cc1nc2c(-c3ccc(Cl)cc3F)nc(N3C[C@H](c4cnn(C)c4)OC(C)(C)C3)cc2c(=O)n1C (single isomer, unassigned) [Example 112B]; 6.00 to 7.00

Please supply the value of reported pEC50 for the item `Cc1cc([C@H]2C[C@@H](c3cc4c(=O)n(C)c(C)nc4c(-c4ccc(F)cc4F)n3)C[C@@H](C)O2)ccn1`
8.00 to 9.00

Please supply the value of reported pEC50 for the item Cc1nc2c(-c3ccc(Cl)cc3F)nc(N3C[C@H](c4cnn(C5CC5)c4)OC(C)(C)C3)nc2c(=O)n1C (single isomer, unassigned) [Example 110B]
7.00 to 8.00

Please supply the value of reported pEC50 for the item Cc1nc2c(-c3ccc(Cl)cc3F)nc(N3CCN(CC(F)(F)F)C(c4cnn(C)c4)C3)nc2c(=O)n1C (stereo not drawn)
7.00 to 8.00

Please supply the value of reported pEC50 for the item Cn1c(C(F)(F)F)nc2c(-c3ccc(F)cc3F)nc([C@@H]3CCO[C@H](c4cnn(C5CC5)c4)C3)cc2c1=O (single isomer, unassigned) [Example 197A]
7.00 to 8.00

Source of measurements: patent US20260200926A1
